The binders listed here are annotated with their Murine IL-21R-BaF3 Proliferation IC50.
Target: murine IL-21R expressed on cells (murine, UniProt Q9JHX3 20-529)
Sequence (Q9JHX3 20-529 limits assumed): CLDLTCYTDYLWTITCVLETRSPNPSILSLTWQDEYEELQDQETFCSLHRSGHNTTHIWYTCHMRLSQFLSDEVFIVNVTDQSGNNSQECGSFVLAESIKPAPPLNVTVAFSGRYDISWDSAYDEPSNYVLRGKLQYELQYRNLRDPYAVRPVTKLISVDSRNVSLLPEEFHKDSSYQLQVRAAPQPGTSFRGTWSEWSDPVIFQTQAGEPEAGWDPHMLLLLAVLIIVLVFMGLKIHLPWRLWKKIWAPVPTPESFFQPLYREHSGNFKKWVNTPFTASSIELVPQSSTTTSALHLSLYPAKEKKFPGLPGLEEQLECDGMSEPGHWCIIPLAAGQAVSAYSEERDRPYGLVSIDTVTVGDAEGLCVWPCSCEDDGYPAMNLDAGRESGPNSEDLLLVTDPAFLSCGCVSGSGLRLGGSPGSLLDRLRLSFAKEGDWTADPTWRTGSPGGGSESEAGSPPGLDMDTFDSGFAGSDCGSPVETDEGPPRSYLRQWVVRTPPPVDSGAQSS
Assay: cell-based or functional assay
Response body: numeric value in nM, unit text excluded.

# binder, Murine IL-21R-BaF3 Proliferation IC50 (nM)
records = [
    ("AbC (antibody, IgG1, V domains shown, As for AbA: IgG1/lambda, CDR3 graft, residue limits derived; also called VHP/VL11) VH: QVQLQESGPGLVKPSETLSLTCAVSGYSISSGYYWGWIRQPPGKGLEWIGSISHTGNTYYNPPLKSRVTISVDTSKNQFSLKLSSVTAADTAVYYCARGGGISRPEYWGQGTLVTVSS VL: SSELTQDPAVSVALGQTVRITCQGDSLRTYYASWYQQKPGQAPVLVIYGKHKRPSGIPDRFSGSSSGNTASLTITGAQAEDEADYYCSSRSRHGNPHVLFGGGTQLTVL", 0.03),
]

// next item, Murine IL-21R-BaF3 Proliferation IC50 requested
Q. Endpoint output: Murine IL-21R-BaF3 Proliferation IC50 of AbJ (antibody, IgG1, V domains shown, As for AbA: IgG1/lambda, CDR3 graft, residue limits derived; also called VH3/VLP) VH: QVQLQESGPGLVKPSETLSLTCAVSGYSISSGYYWGWIRQPPGKGLEWIGSISHTGNTYYNPPLKSRVTISVDTSKNQFSLKLSSVTAADTAVYYCARFMGFGRPEYWGQGTLVTVSS VL: SSELTQDPAVSVALGQTVRITCQGDSLRTYYASWYQQKPGQAPVLVIYGKHKRPSGIPDRFSGSSSGNTASLTITGAQAEDEADYYCNSRDSSGNPHVLFGGGTQLTVL . Value?
A. 0.4
